Every entry's value here was drawn from paper PMC4227885.

Tested on: J774 mouse macrophages
Assay type: cell-based
pIC50: −log10 of the molar value.
Observable: pIC50

## Input Sample COc1cc2[nH]c(C)c(-c3ccc(Oc4ccc(OC(F)(F)F)cc4)cc3)c(=O)c2cc1Cl [ELQ-300] — what was its pIC50?
## Output < 5.00

---

Tested on: murine bone marrow derived hematopoietic progenitors (CFU-GM, BFUE, CFU-GEMM)
Assay type: cell-based
Observable: IC50

## Input // returns reported IC50 for input COc1cc2[nH]c(C)c(-c3ccc(Oc4ccc(OC(F)(F)F)cc4)cc3)c(=O)c2cc1Cl
## Output > 10 µM

---

Measured Target: human cytochrome bc1 (derived from HEK-293 cells) (Homo sapiens, UniProt P00156)
Test Protocol: Inhibition of human cytochrome bc1 activity
Type: biochemical
Observable: pIC50
Please keep in mind that pIC50 is minus log10 of the molar concentration; only the number is needed.

## Input // fetch human cytochrome bc1 (derived from HEK-293 cells) (Homo sapiens, UniProt P00156) pIC50 for O=C1C(O)=C([C@H]2CC[C@H](c3ccc(Cl)cc3)CC2)C(=O)c2ccccc21 [Atovaquone, reference compound]
## Output 6.34

---

Measured Target: human cytochrome bc1 (derived from HEK-293 cells) (Homo sapiens, UniProt P00156)
Test Protocol: Inhibition of human cytochrome bc1 activity
Assay type: biochemical
Assay Setup: read-out: IC50, nM human cytochrome bc1; derived from HEK-293 cells
Observable: IC50

## Input Which value of IC50 has been reported for COc1cc2[nH]c(C)c(-c3ccc(Oc4ccc(OC(F)(F)F)cc4)cc3)c(=O)c2cc1Cl [ELQ-300] in the records?
## Output > 10000 nM

---

System: human foreskin fibroblasts (HFF)
Type: cell-based
Observable: IC50

## Input Requested read-out: IC50. Entry: COc1cc2[nH]c(C)c(-c3ccc(Oc4ccc(OC(F)(F)F)cc4)cc3)c(=O)c2cc1Cl
## Output > 10 µM

---

System: exoerythrocytic stages of P. berghei
Test Protocol: In vitro liver stage assay, luciferase sporozoites on HEPG2 hepatoma cells
Format: cell-based
Assay Setup: read-out: EC50, luciferase expression, 44 h post infection
Observable: pEC50
Kindly note that pEC50 refers to -log10 of the concentration in mol/L and answer with the value alone.

## Input Please report the recorded pEC50 for COc1cc2[nH]c(C)c(-c3ccc(Oc4ccc(OC(F)(F)F)cc4)cc3)c(=O)c2cc1Cl [ELQ-300] .
## Output 8.99

---

Test system: two rat cell lines
Assay Setup: read-out: IC50 level, ATP levels; either of two rat cell lines, galactose medium
pIC50: −log10 of the molar value.
Observable: pIC50

## Input GET /values?readout=pIC50&system=two rat cell lines&item= COc1cc2[nH]c(C)c(-c3ccc(Oc4ccc(OC(F)(F)F)cc4)cc3)c(=O)c2cc1Cl
## Output < 4.00
